Each recorded value in this set is attributed to paper PMC11879040.

system: HepaRG cells; test: High-throughput transcriptomics (HTTr, TempO-Seq), HepaRG, 24 h; type: cell-based, human; settings: HepaRG; HTTr BIFROST PoD
Binary label based on pod_httr_bifrost PoD with cut-off 70 µM: below gives Yes, not below gives No.

The following molecules have reported results that may help.
[
  {
    "molecule": "CC(C)(CO)C(O)C(=O)NCCCO (centres unmarked)",
    "assignedLabel": "Yes"
  },
  {
    "molecule": "CC1(C)C(C=C(Cl)Cl)C1C(=O)OC(C#N)c1cccc(Oc2ccccc2)c1 (centres unmarked)",
    "assignedLabel": "Yes"
  },
  {
    "molecule": "C[C@@H]1C[C@H]2[C@@H]3CCC4=CC(=O)C=C[C@]4(C)[C@@]3(F)[C@@H](O)C[C@]2(C)[C@@]1(O)C(=O)CO",
    "assignedLabel": "Yes"
  }
]

input: Does O=[N+]([O-])c1cc(C(F)(F)F)c(Cl)c([N+](=O)[O-])c1Nc1ncc(C(F)(F)F)cc1Cl have pod_httr_bifrost PoD strictly under 70 µM?
output: Yes

input: Determine whether this molecule shows pod_httr_bifrost PoD lower than 70 µM (ties excluded): O=C(O)c1ccc2c(c1)C(=O)OC2=O [Trimellitic_anhydride]
output: No

input: Determine if CCN(CC)C(=O)c1cccc(C)c1 [DEET, N,N-Diethyl-3-methylbenzamide] shows pod_httr_bifrost PoD strictly lower than 70 µM.
output: Yes

input: Consider the molecule CC(=O)CC(c1ccccc1)c1c([O-])c2ccccc2oc1=O.[Na+] (centres unmarked) . Is its pod_httr_bifrost PoD strictly less than 70 µM?
output: Yes

input: Find out if reported pod_httr_bifrost PoD for CC(=O)Nc1ccc(O)cc1 [Paracetamol, N-(4-Hydroxyphenyl)acetamide] is less than 70 µM
output: No
